Settings: in water, 293.15 K
readout_kind: solubility (mole fraction)
Could you keep your reply to the number by itself?

Quick one: solubility (mole fraction) for NCC1(CC(=O)O)CCCCC1.O ? 0.0116

* * *

Settings: in methanol, 308.15 K
readout_kind: solubility (mole fraction)

Quick one: solubility (mole fraction) for NCC1(CC(=O)O)CCCCC1 ? 0.0117

* * *

Settings: in methanol, 323.15 K
readout_kind: solubility (mole fraction)
Could you keep your reply to the number by itself?

Quick one: solubility (mole fraction) for NCC1(CC(=O)O)CCCCC1 ? 0.016

* * *

Conditions: in water, 288.15 K
readout_kind: solubility (mole fraction)
Could you keep your reply to the number by itself?

Quick one: solubility (mole fraction) for NCC1(CC(=O)O)CCCCC1.O ? 0.0106

* * *

Settings: in water, 313.15 K
readout_kind: solubility (mole fraction)
Could you keep your reply to the number by itself?

Quick one: solubility (mole fraction) for NCC1(CC(=O)O)CCCCC1.O ? 0.0168

* * *

Details: in methanol, 303.15 K
readout_kind: solubility (mole fraction)
Could you keep your reply to the number by itself?

Quick one: solubility (mole fraction) for NCC1(CC(=O)O)CCCCC1 ? 0.0107

* * *

Settings: in ethanol, 323.15 K
readout_kind: solubility (mole fraction)
Could you keep your reply to the number by itself?

Quick one: solubility (mole fraction) for NCC1(CC(=O)O)CCCCC1 ? 0.00329

* * *

Conditions: in methanol, 313.15 K
readout_kind: solubility (mole fraction)
Could you keep your reply to the number by itself?

Quick one: solubility (mole fraction) for NCC1(CC(=O)O)CCCCC1 ? 0.0127

* * *

Settings: in water, 318.15 K
readout_kind: solubility (mole fraction)

Quick one: solubility (mole fraction) for NCC1(CC(=O)O)CCCCC1.O ? 0.0189

* * *

Conditions: in ethanol, 308.15 K
readout_kind: solubility (mole fraction)

Quick one: solubility (mole fraction) for NCC1(CC(=O)O)CCCCC1 ? 0.00243

* * *

Conditions: in ethanol, 318.15 K
readout_kind: solubility (mole fraction)
Could you keep your reply to the number by itself?

Quick one: solubility (mole fraction) for NCC1(CC(=O)O)CCCCC1 ? 0.003

* * *

Conditions: in methanol, 318.15 K
readout_kind: solubility (mole fraction)
Could you keep your reply to the number by itself?

Quick one: solubility (mole fraction) for NCC1(CC(=O)O)CCCCC1 ? 0.014

* * *

Details: in water, 308.15 K
readout_kind: solubility (mole fraction)
Could you keep your reply to the number by itself?

Quick one: solubility (mole fraction) for NCC1(CC(=O)O)CCCCC1.O ? 0.0152

* * *

Conditions: in ethanol, 313.15 K
readout_kind: solubility (mole fraction)

Quick one: solubility (mole fraction) for NCC1(CC(=O)O)CCCCC1 ? 0.00267

* * *

Conditions: in ethanol, 298.15 K
readout_kind: solubility (mole fraction)
Could you keep your reply to the number by itself?

Quick one: solubility (mole fraction) for NCC1(CC(=O)O)CCCCC1 ? 0.00187

* * *

Settings: in water, 303.15 K
readout_kind: solubility (mole fraction)

Quick one: solubility (mole fraction) for NCC1(CC(=O)O)CCCCC1.O ? 0.0137

* * *

Settings: in methanol, 283.15 K
readout_kind: solubility (mole fraction)
Could you keep your reply to the number by itself?

Quick one: solubility (mole fraction) for NCC1(CC(=O)O)CCCCC1 ? 0.00718
